# Experimental target: Alpha-1B adrenergic receptor (Rattus norvegicus)
# Sequence (P15823 whole entry): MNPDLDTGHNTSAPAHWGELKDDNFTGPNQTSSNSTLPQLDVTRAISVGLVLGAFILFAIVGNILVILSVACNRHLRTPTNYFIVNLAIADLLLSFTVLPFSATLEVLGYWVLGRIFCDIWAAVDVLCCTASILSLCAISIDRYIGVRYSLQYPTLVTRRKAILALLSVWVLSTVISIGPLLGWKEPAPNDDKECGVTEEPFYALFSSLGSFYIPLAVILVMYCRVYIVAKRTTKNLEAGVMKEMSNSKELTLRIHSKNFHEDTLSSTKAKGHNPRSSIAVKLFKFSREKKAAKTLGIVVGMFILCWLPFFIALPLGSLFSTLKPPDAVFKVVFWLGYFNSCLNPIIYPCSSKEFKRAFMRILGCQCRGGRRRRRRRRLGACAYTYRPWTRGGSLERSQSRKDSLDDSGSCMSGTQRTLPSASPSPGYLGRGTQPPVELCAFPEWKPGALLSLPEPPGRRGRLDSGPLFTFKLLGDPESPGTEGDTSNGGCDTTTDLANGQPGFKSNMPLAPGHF
# Test protocol: Antagonism of phenylephrine stimulated contraction of the rat isolated spleen.
# Assay type: functional, tissue-based
# Test parameters: read-out: pA2 (converted)
Attribute measured: Kb (nM)
The reply should be a number in nM, with the unit left off.

Some entries whose results are on file:
For this molecule ( COc1cc2nc(N(C)CCSSCCN(C)C(=O)c3ccc(CN(C)C)o3)nc(N)c2cc1OC ), measured Kb is 53.7

Summary for this molecule, COc1cc2nc(N(C)CCCCCCN(C)C(=O)c3ccc(CCl)o3)nc(N)c2cc1OC : Kb is 1.07

Notebook: COc1cc2nc(N(C)CCSSCCN(C)C(=O)c3ccc(CCl)o3)nc(N)c2cc1OC , Kb read as 42.7

The measured Kb associated with COc1cc2nc(N(C)CCCCCCN(C)C(=O)c3cccc(CCl)c3)nc(N)c2cc1OC reads 66.1

Next:
Measured Kb, COc1cc2nc(N(C)CCCCCCN(C)C(=O)c3ccc(CN(C)C)cc3)nc(N)c2cc1OC : 2.95

COc1cc2nc(N(C)CCCCCCN(C)C(=O)c3ccccc3CN(C)C)nc(N)c2cc1OC has a reported Kb of 13.2

COc1cc2nc(N(C)CCCCCCN(C)C(=O)c3ccc(CCl)cc3)nc(N)c2cc1OC has a reported Kb of 0.708

// Kb value for CNCCCCCCN(C)Cc1cccc(C(=O)N(C)CCCCCCN(C)c2nc(N)c3cc(OC)c(OC)cc3n2)c1 : 19.5

response.value for COc1cc2nc(N(C)CCCCCCN(C)C(=O)c3ccccc3CNCCCCCCN)nc(N)c2cc1OC (field: Kb) = 0.676

----------
Below, each of the molecules is paired with its reported Ki value.
# Experimental target: Alpha-1D adrenergic receptor (Homo sapiens, UniProt P25100)
# Sequence (P25100 whole entry): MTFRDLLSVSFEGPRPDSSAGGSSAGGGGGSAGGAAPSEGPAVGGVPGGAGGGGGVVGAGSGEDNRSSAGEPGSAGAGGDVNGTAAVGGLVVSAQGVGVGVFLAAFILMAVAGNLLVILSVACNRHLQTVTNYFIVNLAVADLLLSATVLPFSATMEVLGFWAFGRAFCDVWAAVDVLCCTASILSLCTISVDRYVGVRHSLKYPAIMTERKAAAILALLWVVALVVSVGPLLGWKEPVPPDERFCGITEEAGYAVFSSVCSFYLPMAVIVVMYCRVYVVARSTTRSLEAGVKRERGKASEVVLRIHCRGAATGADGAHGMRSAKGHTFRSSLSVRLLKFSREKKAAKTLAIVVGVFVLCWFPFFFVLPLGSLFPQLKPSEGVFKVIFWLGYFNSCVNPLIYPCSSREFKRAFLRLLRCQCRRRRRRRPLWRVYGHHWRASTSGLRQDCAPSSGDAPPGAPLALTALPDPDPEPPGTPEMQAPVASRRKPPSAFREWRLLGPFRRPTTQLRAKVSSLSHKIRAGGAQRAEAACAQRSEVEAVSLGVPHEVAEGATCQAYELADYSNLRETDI
# Test protocol: Binding affinity at human cloned Alpha-1D adrenergic receptor in chinese hamster ovary cells by [3H]prazosin displacement.
Provide only the numeric value, understood in nM.

Recorded result, COc1cc2nc(N(C)CCCCCCN(C)C(=O)c3ccco3)nc(N)c2cc1OC , Ki: 0.195

The measured Ki associated with COc1cc2nc(N(C)CCSSCCN(C)C(=O)c3ccco3)nc(N)c2cc1OC reads 0.724

Now consider a different molecule.
Per the records, this molecule ( COc1cc2nc(N(C)CCCCCCN(C)C(=O)c3cccc(CN(C)C)c3)nc(N)c2cc1OC ) has Ki equal to 0.245

----------
# Experimental target: UniProt P23944
# Sequence (P23944 whole entry): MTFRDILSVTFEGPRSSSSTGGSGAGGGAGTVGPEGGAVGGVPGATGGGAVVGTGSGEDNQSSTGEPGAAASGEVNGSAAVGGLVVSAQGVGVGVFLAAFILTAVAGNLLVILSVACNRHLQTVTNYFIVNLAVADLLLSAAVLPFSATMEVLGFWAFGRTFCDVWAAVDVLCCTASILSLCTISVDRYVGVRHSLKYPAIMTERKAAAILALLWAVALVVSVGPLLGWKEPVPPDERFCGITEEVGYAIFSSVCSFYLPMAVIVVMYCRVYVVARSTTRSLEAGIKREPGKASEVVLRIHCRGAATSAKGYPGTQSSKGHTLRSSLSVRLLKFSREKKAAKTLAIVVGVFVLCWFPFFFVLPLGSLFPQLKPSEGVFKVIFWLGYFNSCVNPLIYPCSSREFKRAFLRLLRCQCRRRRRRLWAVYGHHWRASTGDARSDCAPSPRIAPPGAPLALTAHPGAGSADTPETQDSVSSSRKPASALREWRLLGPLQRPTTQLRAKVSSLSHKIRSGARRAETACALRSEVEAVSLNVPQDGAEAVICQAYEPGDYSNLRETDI
# Test protocol: Antagonism of norepinephrine induced contraction of rat isolated thoracic aorta.
# Assay type: functional, tissue-based
# Test parameters: read-out: pA2 (converted)
Attribute measured: Kb
Report the figure along with its unit, number first.

Please review the following examples before continuing.
Record COc1cc2nc(N(C)CCCCCCN(C)C(=O)c3ccccc3CN(C)C)nc(N)c2cc1OC . Reported Kb: 5.5 nM

// recorded Kb for COc1cc2nc(N(C)CCCCCCN(C)C(=O)c3ccccc3CNCCCCCCN)nc(N)c2cc1OC : 3.16 nM

Entry under test: COc1cc2nc(N(C)CCCCCCN(C)C(=O)c3ccccc3CCl)nc(N)c2cc1OC . Its Kb was 2.82 nM

What the record says about COc1cc2nc(N(C)CCCCCCN(C)C(=O)c3ccc(CCl)cc3)nc(N)c2cc1OC : Kb is 19.5 nM

The compound listed as COc1cc2nc(N(C)CCCCCCN(C)C(=O)c3ccc(CCl)o3)nc(N)c2cc1OC has a reported Kb of 0.407 nM

Lookup result for COc1cc2nc(N(C)CCCCCCN(C)C(=O)c3ccccc3)nc(N)c2cc1OC ; measured Kb: 6.92 nM

Next:
Item: COc1cc2nc(N(C)CCSSCCN(C)C(=O)c3ccc(CN(C)C)o3)nc(N)c2cc1OC | Kb: 6.03 nM

Briefly, Kb measured for COc1cc2nc(N(C)CCCCCCN(C)C(=O)c3ccc(CN(C)C)o3)nc(N)c2cc1OC : 5.89 nM

Kb reading for CNCCCCCCN(C)Cc1ccc(C(=O)N(C)CCCCCCN(C)c2nc(N)c3cc(OC)c(OC)cc3n2)cc1 : 3.47 nM

----------
# Experimental target: Adrenergic receptor alpha-2 (Rattus norvegicus, UniProt P22086+P19328+P22909)
# Test protocol: Antagonism of the clonidine-induced depression of twitch responses of rat isolated prostatic vas deferens.
Attribute measured: pA2
Answer as a number with no unit attached.

pA2 recorded for this compound, COc1cc2nc(N(C)CCCCCCN(C)C(=O)c3cccc(CN4CCSC4)c3)nc(N)c2cc1OC , is 5.94

The compound listed as COc1cc2nc(N(C)CCCCCCN(C)C(=O)c3cccc(CN)c3)nc(N)c2cc1OC has a reported pA2 of 5.44

// switching to the query compound
Per the record, CNCCCCCCN(C)Cc1ccc(C(=O)N(C)CCCCCCN(C)c2nc(N)c3cc(OC)c(OC)cc3n2)cc1 has pA2 of 5.6

----------
Entries annotated with measured Ki
# Experimental target: Alpha-1B adrenergic receptor (Homo sapiens, UniProt P35368)
# Sequence (P35368 whole entry): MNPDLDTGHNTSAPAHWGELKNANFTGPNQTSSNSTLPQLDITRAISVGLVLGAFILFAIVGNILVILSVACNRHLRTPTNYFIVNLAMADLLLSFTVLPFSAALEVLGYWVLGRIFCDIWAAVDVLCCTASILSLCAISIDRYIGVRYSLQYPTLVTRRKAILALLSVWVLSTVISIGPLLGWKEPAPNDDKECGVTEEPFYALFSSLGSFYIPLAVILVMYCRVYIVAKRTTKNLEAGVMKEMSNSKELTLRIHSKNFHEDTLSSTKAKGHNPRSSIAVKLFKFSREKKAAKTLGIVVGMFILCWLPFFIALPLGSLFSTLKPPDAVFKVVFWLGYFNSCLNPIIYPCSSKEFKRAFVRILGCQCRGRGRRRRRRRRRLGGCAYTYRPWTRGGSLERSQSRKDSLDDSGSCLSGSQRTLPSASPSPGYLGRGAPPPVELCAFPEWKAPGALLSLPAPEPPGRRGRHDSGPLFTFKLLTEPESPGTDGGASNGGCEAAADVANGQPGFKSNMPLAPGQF
# Test protocol: Binding affinity at human cloned Alpha-1B adrenergic receptor in chinese hamster ovary cells by [3H]prazosin displacement.
Returns: string containing the number followed by the unit.

The recorded Ki for COc1cc2nc(N(C)CCCCCCN(C)C(=O)c3ccco3)nc(N)c2cc1OC is 0.11 nM

get_value(item= COc1cc2nc(N(C)CCSSCCN(C)C(=O)c3ccco3)nc(N)c2cc1OC , readout=Ki) returns 1.07 nM

Lookup result for COc1cc2nc(N(C)CCCCCCN(C)C(=O)c3cccc(CN(C)C)c3)nc(N)c2cc1OC ; measured Ki: 0.166 nM

New cases:
Sure, the documented Ki for COc1ccccc1N1CCN(CCN2C(=O)CC3(CCCC3)CC2=O)CC1 [BMY-7378] is 64.6 nM

----------
# reported Kb; entries follow
# Experimental target: Alpha-1A adrenergic receptor (Rattus norvegicus, UniProt P43140)
# Sequence (P43140 whole entry): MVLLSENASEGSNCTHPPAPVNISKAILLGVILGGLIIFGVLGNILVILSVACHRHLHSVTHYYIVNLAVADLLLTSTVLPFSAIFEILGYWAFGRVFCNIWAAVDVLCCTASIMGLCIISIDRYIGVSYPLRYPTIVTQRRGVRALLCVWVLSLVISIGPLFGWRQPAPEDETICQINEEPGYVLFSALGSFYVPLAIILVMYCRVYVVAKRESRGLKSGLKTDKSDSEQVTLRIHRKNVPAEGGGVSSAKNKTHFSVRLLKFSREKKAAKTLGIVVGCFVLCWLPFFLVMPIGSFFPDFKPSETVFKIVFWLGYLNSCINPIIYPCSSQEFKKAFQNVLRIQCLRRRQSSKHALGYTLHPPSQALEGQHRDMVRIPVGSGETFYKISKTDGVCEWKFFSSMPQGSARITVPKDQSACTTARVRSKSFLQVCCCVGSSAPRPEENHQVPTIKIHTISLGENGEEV
# Test protocol: Antagonism of the norepinephrine induced contraction of rat isolated prostatic vas deferens.
# Type: functional
# Test parameters: read-out: pA2 (converted)
Reply numerically in nM, unit not repeated.

Check out these entries, answers already filled in.
The measured Kb associated with COc1cc2nc(N(C)CCCCCCN(C)C(=O)c3ccccc3CNCCCCCCN)nc(N)c2cc1OC reads 10.7

# Kb (molecule: COc1cc2nc(N(C)CCCCCCN(C)C(=O)c3ccccc3CCl)nc(N)c2cc1OC ) is 417

Others:
For record COc1cc2nc(N(C)CCSSCCN(C)C(=O)c3ccc(CN(C)C)o3)nc(N)c2cc1OC the listed Kb is 200

----------
# Experimental target: Adrenergic receptor alpha-2 (Rattus norvegicus, UniProt P22086+P19328+P22909)
# Sequence (P22086 whole entry): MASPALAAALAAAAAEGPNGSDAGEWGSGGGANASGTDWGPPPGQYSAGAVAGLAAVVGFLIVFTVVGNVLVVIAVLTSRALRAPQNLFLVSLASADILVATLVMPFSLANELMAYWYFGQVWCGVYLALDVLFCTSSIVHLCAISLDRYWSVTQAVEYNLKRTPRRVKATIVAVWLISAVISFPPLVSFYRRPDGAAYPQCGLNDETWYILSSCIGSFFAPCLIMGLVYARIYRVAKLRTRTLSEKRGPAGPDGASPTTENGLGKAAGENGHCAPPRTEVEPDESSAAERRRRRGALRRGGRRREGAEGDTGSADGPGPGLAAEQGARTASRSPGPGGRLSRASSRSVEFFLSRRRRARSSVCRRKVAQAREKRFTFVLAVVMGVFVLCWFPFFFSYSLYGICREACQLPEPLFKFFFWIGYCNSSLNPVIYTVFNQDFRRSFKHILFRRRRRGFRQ
# Sequence (P19328 whole entry): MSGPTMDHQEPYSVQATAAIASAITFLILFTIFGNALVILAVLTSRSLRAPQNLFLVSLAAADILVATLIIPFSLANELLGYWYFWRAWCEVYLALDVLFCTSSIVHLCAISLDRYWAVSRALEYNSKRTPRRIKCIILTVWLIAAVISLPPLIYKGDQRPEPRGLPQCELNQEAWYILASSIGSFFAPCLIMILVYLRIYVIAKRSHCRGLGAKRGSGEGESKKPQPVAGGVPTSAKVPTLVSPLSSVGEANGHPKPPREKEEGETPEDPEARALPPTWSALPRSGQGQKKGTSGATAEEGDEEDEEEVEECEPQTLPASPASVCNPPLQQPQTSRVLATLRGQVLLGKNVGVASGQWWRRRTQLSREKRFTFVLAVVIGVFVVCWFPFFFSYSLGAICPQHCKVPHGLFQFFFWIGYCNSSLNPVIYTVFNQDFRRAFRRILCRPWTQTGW
# Sequence (P22909 whole entry): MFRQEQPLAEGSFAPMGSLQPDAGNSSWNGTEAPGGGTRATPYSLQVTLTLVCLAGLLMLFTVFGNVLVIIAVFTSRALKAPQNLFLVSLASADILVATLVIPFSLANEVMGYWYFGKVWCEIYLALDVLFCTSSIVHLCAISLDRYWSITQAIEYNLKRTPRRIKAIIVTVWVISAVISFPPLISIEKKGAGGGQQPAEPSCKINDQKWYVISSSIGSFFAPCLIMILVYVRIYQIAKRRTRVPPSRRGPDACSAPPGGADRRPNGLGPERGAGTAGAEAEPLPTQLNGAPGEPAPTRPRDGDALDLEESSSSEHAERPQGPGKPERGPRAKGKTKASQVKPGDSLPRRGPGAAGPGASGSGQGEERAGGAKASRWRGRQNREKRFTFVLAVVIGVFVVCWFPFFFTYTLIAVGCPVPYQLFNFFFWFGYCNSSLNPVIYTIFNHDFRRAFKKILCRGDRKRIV
# Test protocol: Antagonism of the clonidine-induced depression of twitch responses of rat isolated prostatic vas deferens.
Listing of recorded pA2 by entry.

The molecule listed as COc1cc2nc(N(C)CCCCCCN(C)C(=O)c3ccc(CCl)o3)nc(N)c2cc1OC shows pA2 equal to < 5

Continuing:
Query COc1cc2nc(N(C)CCCCCCN(C)C(=O)c3ccc(CN(C)C)o3)nc(N)c2cc1OC yields pA2 of < 5

Memo: COc1cc2nc(N(C)CCCCCCN(C)C(=O)c3ccco3)nc(N)c2cc1OC , reported pA2: 6.66

Looking up COc1cc2nc(N(C)CCSSCCN(C)C(=O)c3ccc(CCl)o3)nc(N)c2cc1OC , I see its pA2 listed as < 5

Per the records, this molecule ( COc1cc2nc(N(C)CCCCCCN(C)C(=O)c3ccccc3CNCCCCCCN)nc(N)c2cc1OC ) has pA2 equal to 5.47
